All figures here come from patent US20260098080A1.

Molecular target: T1, rat MASP-2cf CCP1-CCP2-SP (rat, UniProt Q9JJS8 298-685)
T1 construct: range 298-685; Mw 42309 Da; also called rat MASP-2 catalytic fragment
T1 sequence (Q9JJS8 other isoform, or with tags, fused parts or gaps limits assumed, form in doubt): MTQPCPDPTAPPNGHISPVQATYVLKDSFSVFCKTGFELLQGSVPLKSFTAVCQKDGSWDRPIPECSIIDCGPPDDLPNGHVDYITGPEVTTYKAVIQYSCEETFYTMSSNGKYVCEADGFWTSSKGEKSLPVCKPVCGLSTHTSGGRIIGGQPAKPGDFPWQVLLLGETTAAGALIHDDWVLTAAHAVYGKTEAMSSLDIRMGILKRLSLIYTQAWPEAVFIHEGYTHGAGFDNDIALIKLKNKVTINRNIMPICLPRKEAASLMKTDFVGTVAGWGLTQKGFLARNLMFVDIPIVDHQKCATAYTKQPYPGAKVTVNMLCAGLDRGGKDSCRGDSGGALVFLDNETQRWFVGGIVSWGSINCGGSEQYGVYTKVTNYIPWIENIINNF
Assay: SPR, target immobilised
Where no end group is shown, it is not given here.
Quick list: Relative affinity per entry.
Provide the reading as a plain figure in fold vs EVO2.

binder: EVO213 (designed binder, Modified TFPI-D2 Kunitz domain; made as m1) KPDFCFLENDPGPCRAAKRRYFYNNQTKQCERFGYGGCLGNMNNFVTLEECKNICEDG
property-label: Relative affinity
unit-tag: fold vs EVO2
val: 1

In: Answer with the recorded Relative affinity for the binder listed here: EVO211 (designed binder, not fully specified; ends and bridges not checked, Modified TFPI-D2 Kunitz domain; made as m1) KPDFCFLENDPGWCRALKRRYFYNNQTKQCERFGYGGCLGNMNNFVTLEECKNICEDG
Out: 1.3

In: Answer with the recorded Relative affinity for the binder listed here: EVO24 (designed binder, not fully specified; cysteine pairing not given here, Modified TFPI-D2 Kunitz domain; made as m1) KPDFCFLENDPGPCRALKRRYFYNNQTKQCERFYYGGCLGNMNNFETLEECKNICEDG
Out: 12.6

In: Answer with the recorded Relative affinity for the binder listed here: EVO212 (designed binder, not fully specified; ends and bridges not checked, Modified TFPI-D2 Kunitz domain; made as m1) KPDFCFLENDPGLCRALKRRYFYNNQTKQCERFGYGGCLGNMNNFVTLEECKNICEDG
Out: 2.9
